- Assay System: acetylcholine muscarinic M1 receptor (Homo sapiens, UniProt P11229)
- Construct: expressed in transfected cells; host or cells: CHOnfat (CHO cells with an NFAT reporter background) expressing hM1, kept under Geneticin selection
- Sequence (P11229 whole entry): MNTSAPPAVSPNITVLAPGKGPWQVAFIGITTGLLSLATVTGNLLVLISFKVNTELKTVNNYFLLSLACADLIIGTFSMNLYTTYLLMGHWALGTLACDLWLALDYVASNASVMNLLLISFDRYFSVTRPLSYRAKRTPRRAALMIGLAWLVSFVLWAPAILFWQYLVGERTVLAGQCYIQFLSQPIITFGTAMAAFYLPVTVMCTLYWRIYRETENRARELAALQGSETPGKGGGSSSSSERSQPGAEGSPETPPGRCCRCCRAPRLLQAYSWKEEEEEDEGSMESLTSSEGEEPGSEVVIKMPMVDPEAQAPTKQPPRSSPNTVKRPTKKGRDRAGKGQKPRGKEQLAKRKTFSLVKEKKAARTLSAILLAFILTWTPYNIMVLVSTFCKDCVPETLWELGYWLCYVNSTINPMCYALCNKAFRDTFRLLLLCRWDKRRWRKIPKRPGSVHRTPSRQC
- Protocol Summary: muscarinic FLIPR assay: potentiation of acetylcholine (EC20)-stimulated intracellular Ca2+ in CHOnfat/hM1 cells
- Assay type: cell-based
Metric Name: log10(EC50) (log10 of the value in nM)

>>> assay_value("O=C(O)c1cn(Cc2cc3ccccc3[nH]2)c2cccc(F)c2c1=O [Example 58]")
2.82
>>> assay_value("O=C1Cc2cc(Cn3cc(C(=O)O)c(=O)c4c(F)cccc43)ccc2N1 [Example 53]")
1.58
>>> assay_value("O=C(O)c1cn(Cc2ccc3ccccc3c2)c2c(F)cccc2c1=O [Example 4]")
1.90
>>> assay_value("O=C(O)c1cn(Cc2ccc3[nH]ccc3c2)c2cccc(F)c2c1=O [Example 33]")
1.97
>>> assay_value("O=C(O)c1cn(Cc2ccc3c(c2)OCCO3)c2cccc(F)c2c1=O [Example 27]")
1.46
>>> assay_value("Cn1ncc2cc(Cn3cc(C(=O)O)c(=O)c4c(F)cccc43)ccc21 [Example 1]")
1.86
